Tested on: WB-F344
test: Hepatoprotective activity against DL-galactosamine-induced cell damage in rat WB-F344 cells at 10 uM after 24 hrs by MTT assay
Format: functional, cell-based
Calls of active or inactive are those of the source. The rule behind the calls is not given here.
quantityKind: Activity

Sample records with Activity:
>>> measurement("COc1cc([C@H](O)[C@H](CO)Oc2c(OC)cc(C(=O)O)cc2OC)ccc1O")
"inactive"
>>> measurement("COc1cc([C@@H](O)[C@H](CO)Oc2c(OC)cc([C@@H]3OC[C@@H]4[C@H]3CO[C@H]4c3cc(OC)c(O[C@@H](CO)[C@H](O)c4ccc(O)c(OC)c4)c(OC)c3)cc2OC)ccc1O")
"inactive"
>>> measurement("COc1cc([C@@H](O)[C@H](CO)Oc2c(OC)cc(-c3cc(=O)c4c(O)cc(O)cc4o3)cc2OC)ccc1O")
"inactive"
>>> measurement("COc1cc(-c2cc(=O)c3c(O)cc(O)cc3o2)cc(OC)c1O[C@@H](CO)[C@@H](O)c1ccc(O)cc1")
"inactive"
>>> measurement("COc1cc(-c2cc(=O)c3c(O)cc(O)cc3o2)cc(OC)c1O[C@@H](CO)[C@H](O)c1ccc(O)cc1")
"inactive"

Now consider the entry below.
q: Which Activity is reported for this molecule? COc1cc(C(=O)[C@@H]2CO[C@H](c3cc(OC)c(O)c(OC)c3)[C@H]2CO)cc(OC)c1O
a: inactive

----------
Tested on: Peritoneal macrophage cell
test: Inhibition of LPS-induced nitric oxide production in C57BL/6J mouse peritoneal macrophages at 10 uM after 24 hrs by Griess reaction
Type: functional
Recorded inhibition at 10 µM values for a group of compounds are listed next.

Sample records with inhibition at 10 µM:
>>> measurement("COc1cc([C@@H]2OC[C@@H]3[C@H]2CO[C@H]3c2cc(OC)c(OC)c(OC)c2)cc(OC)c1O")
"< 30%"
>>> measurement("COc1cc([C@H](O)[C@H](CO)Oc2c(OC)cc(O)cc2OC)ccc1O")
"< 30%"
>>> measurement("COc1cc(-c2cc(=O)c3c(O)cc(O)cc3o2)cc(OC)c1O[C@@H](CO)[C@@H](O)c1ccc(O)cc1")
"84.2%"
>>> measurement("COc1cc(-c2cc(=O)c3c(O)cc(O)cc3o2)cc(OC)c1O[C@@H](CO)[C@H](O)c1ccc(O)cc1")
"< 30%"
>>> measurement("COc1cc([C@H](O)[C@H](CO)Oc2c(OC)cc(-c3cc(=O)c4c(O)cc(O)cc4o3)cc2OC)ccc1O [SALCOLIN B]")
"71.7%"

q: Which inhibition at 10 µM is reported for this compound? COc1cc([C@@H]2O[C@@H](c3cc(OC)c(OC)c(OC)c3)[C@H](CO)[C@H]2CO)cc(OC)c1O
a: < 30%

q: Now the same for COc1cc([C@H](O)[C@H](CO)Oc2c(OC)cc(C(=O)O)cc2OC)ccc1O
a: < 30%

q: Now the same for COc1cc([C@@H](O)[C@H](CO)Oc2c(OC)cc([C@@H]3OC[C@@H]4[C@H]3CO[C@H]4c3cc(OC)c(O[C@@H](CO)[C@H](O)c4ccc(O)c(OC)c4)c(OC)c3)cc2OC)ccc1O
a: < 30%

----------
Tested on: HCT-8
test: Cytotoxicity against human HCT8 cells at 10 uM after 96 hrs by MTT assay
Format: functional, cell-based
The source made the active and inactive calls. The calls are words filed in the database; no cut-off is given here.
quantityKind: Activity

Sample records with Activity:
>>> measurement("COc1cc([C@H](O)[C@@H](CO)Oc2c(OC)cc([C@@H]3Oc4c(OC)cc(C=O)cc4[C@H]3CO)cc2OC)ccc1O")
"inactive"
>>> measurement("COc1cc([C@@H](O)[C@H](CO)Oc2c(OC)cc(-c3cc(=O)c4c(O)cc(O)cc4o3)cc2OC)ccc1O")
"inactive"
>>> measurement("COc1cc(C(=O)[C@@H]2CO[C@H](c3cc(OC)c(O)c(OC)c3)[C@H]2CO)cc(OC)c1O")
"inactive"
>>> measurement("COc1cc([C@H](O)[C@H](CO)Oc2c(OC)cc(O)cc2OC)ccc1O")
"inactive"
>>> measurement("COc1cc([C@@H]2O[C@@H](c3cc(OC)c(OC)c(OC)c3)[C@H](CO)[C@H]2CO)cc(OC)c1O")
"inactive"
>>> measurement("COc1cc([C@H](O)[C@H](CO)Oc2c(OC)cc([C@@H]3OC[C@@H]4[C@H]3CO[C@H]4c3cc(OC)c(O[C@@H](CO)[C@@H](O)c4ccc(O)c(OC)c4)c(OC)c3)cc2OC)ccc1O")
"inactive"
>>> measurement("COc1cc2c(c(OC)c1O)[C@H]1c3c(cc(OC)c(O)c3OC)OC[C@@H](C2)[C@H]1CO")
"inactive"
>>> measurement("COc1cc(-c2cc(=O)c3c(O)cc(O)cc3o2)cc(OC)c1O[C@@H](CO)[C@H](O)c1ccc(O)cc1")
"inactive"
>>> measurement("COc1cc([C@H](O)[C@H](CO)Oc2c(OC)cc(-c3cc(=O)c4c(O)cc(O)cc4o3)cc2OC)ccc1O [SALCOLIN B]")
"inactive"

q: Which Activity is reported for this compound? COc1cc([C@@H]2Oc3c(OC)cc(/C=C/CO)cc3[C@H]2CO)cc(OC)c1OC
a: inactive

These data points were gathered from ChEMBL document CHEMBL1795288.
